tested on: A549/ATCC NSCLC; test: NCI-60 one-dose screen, 48 h (100 = growth as untreated, 0 = no growth, -100 = all killed); details: 10 µM unless noted
The panel holds about 83,000 compounds, 20% with a hit somewhere; the sample as a whole holds those more often.
property.label: growth (%)
Field: numeric (%). Do not append units.

growth reading for "O=c1[nH]c(=O)c2c(-c3cc4ccccc4oc3=O)ccnc2[nH]1" : 91.9

growth reading for C=C1CCC2C3(C)COC(c4ccc(F)cc4)OC3CCC2(C)C1C/C=C1/C(=O)OCC1O (stereo not drawn) : 9.65

growth reading for CCCn1cc(-c2nc(Nc3ccc(C(=O)NCCCCNc4cccc5c4C(=O)N(C4CCC(=O)NC4=O)C5=O)cc3)nc3[nH]ccc23)cn1 (stereo not drawn) : 21.1

growth reading for "N#Cc1c(-c2ccc(Cl)cc2)nc2n[nH]c(-c3ccc(Cl)cc3)c2c1-c1cccs1" : 54.9

growth reading for CC1=C(C(=O)c2ccccc2)C(c2cccc3ccccc23)n2c(nc3ccccc32)N1 (stereo not drawn) : 40.8

growth reading for "COc1cc(/C=C/C(=O)c2nnn(-c3ccc(Cl)cc3)c2C)cc(OC)c1OC" : 34.9

growth reading for "S=C(Nc1ccc(OCc2nc3ccccc3[nH]2)cc1)NC1CCCCC1" : 105

growth reading for "Cn1cc(-c2nnc(N)nc2-c2c[nH]c3ccc(F)cc23)c2cccnc21" : 47.6

growth reading for "OCNc1ccc(-n2cnc3cc(-c4ccc(O)cc4)ccc32)cc1C(F)(F)F" : 22.4

growth reading for COc1cc(C2CC(c3cc(OC)c(OC)c(OC)c3)=Nc3c(N)nc(N)nc3N2)ccc1Oc1nc(NCCO)nc(N2CCOCC2)n1 (stereo not drawn) : 99.2

growth reading for "COc1ccc2oc3c4[nH]c5ccccc5c4c4c(c3c2c1)C(=O)N(C(=O)OC(C)(C)C)C4=O" : 0.48

growth reading for "COc1cc2nc(SCc3ccccc3)n(-c3ccc(Cl)cc3)c(=O)c2cc1OC" : -50.6

growth reading for "O=C(N/N=C/c1ccc(-c2ccc(O)cc2)s1)c1[nH]c2ccc(Br)cc2c1-c1ccccc1" : 23.8

growth reading for "O=C1C(=Nc2ccc(F)c(Cl)c2)c2cccc3cccc1c23" : 89.6

growth reading for "O=C(c1ccccc1)c1ccc2nc(-c3ccc(F)cc3)[nH]c2c1" : 82.2

growth reading for "Cn1cc(-c2cc3nc(-c4cn(C)c5ncccc45)cc(N)n3n2)c2cc(Cl)ccc21" : -4.13

growth reading for COc1cc2c(c(OC)c1OC)C(=O)CC(c1cccc(NC(=O)c3cc(NC(=O)[C@H](CO)NC(=O)OC(C)(C)C)ccc3Cl)c1)O2 (stereo partly drawn) : 58.2

growth reading for "COc1cc2oc(-c3cccc(C(=O)Nc4ccc(Cl)cc4)c3)cc(=O)c2c(OCC(=O)N[C@@H](Cc2ccccc2)C(=O)O)c1OC" : 106

* * *

test system: IGROV1 ovarian; assay: NCI-60 one-dose screen, 48 h (100 = growth as untreated, 0 = no growth, -100 = all killed); conditions: 10 µM unless noted
Compounds without any hit were thinned out: in the full panel of roughly 83,000, 20% have a hit.
property.label: growth (%)
Field: numeric (%). Do not append units.

growth reading for Cc1ccc([C@H]2C(C(=O)c3ccc(Cl)cc3)C3(N[C@@H]2c2ccccc2)C(=O)Nc2ccc(Br)cc23)cc1 (some centres undefined) : 60.1

growth reading for "Nc1nnc(-c2c[nH]c3ccc(Br)cc23)c(-c2c[nH]c3ncc(Br)cc23)n1" : 22

growth reading for "Cc1cc(=O)oc2cc(OCCCOc3ccc(/C=C/C(=O)Nc4ccccc4N)cc3)ccc12" : 39.4

growth reading for C#CCOc1cc(N(CC)CC)ccc1C(C(=O)NC(C)(C)C)N(C(=O)C1CCc2cc(F)ccc2O1)c1ccccc1Br (centres undefined) : 90.9

growth reading for "Cn1cc(-c2nc(N)nnc2-c2c[nH]c3ccc(Br)cc23)c2cccnc21" : 46.2

growth reading for CC1=C(C(=O)OC(C)C)C(c2cccc(O)c2)NC(=S)N1 (centres undefined) : 110

growth reading for "CC(C)Sc1nc(NCCc2c[nH]c3ccccc23)c(C#N)c(-c2ccc(F)cc2)n1" : 90.4

growth reading for COc1c(F)ccc(C(=O)Nc2ccc3nc(NC(=O)C4CCCN(S(=O)(=O)c5ccc(Cl)cc5)C4)sc3c2)c1F (centres undefined) : 72.9

growth reading for "COc1ccc2nc(Nc3cccc(NC(=O)c4ccc(CN5CCCN(C)CC5)c(C(F)(F)F)c4)c3)ccc2c1" : -56.4

growth reading for CCOC(=O)C(N=Nc1ccc(S(=O)(=O)N=C(N)N)cc1)C(C)=O (centres undefined) : 110

growth reading for "CCCCSc1nc(Nc2ccc(C(C)=O)cc2)c(C#N)c(-c2ccc(OC)cc2)n1" : 38.5

growth reading for "Cc1ccc(-c2nc(C#N)c(S(=O)(=O)N3CCN(S(=O)(=O)c4ccccc4)CC3)o2)cc1" : -63.6

growth reading for "CCCCc1c(Nn2cnnn2)no[n+]1[O-]" : 35.8

growth reading for "CN(C)CCn1c2ccccc2c2nc3ccc([N+](=O)[O-])cc3nc21" : 4.78

growth reading for Cc1ccccc1[C@H]1C(C(=O)c2ccc(Cl)cc2)C2(N[C@@H]1c1ccccc1)C(=O)Nc1ccc(Br)cc12 (some centres undefined) : 13.4

growth reading for "COc1cc(-c2nc3cc(Cl)c(Cl)cc3[nH]2)ccc1OCc1nnc(-c2cccs2)o1" : 59.4

growth reading for CC1(c2cc3cc(Cl)ccc3oc2=O)NC(=O)c2c(/C=C/C(=O)OC3CC4CCC3(C)C4(C)C)cccc2N1 (centres undefined) : 76.1

growth reading for "O=C1CCCc2cc(OCC(=O)N3CCCCC3)ccc2N1" : 121

growth reading for "CCOC(=O)c1ccc(Nc2nc(NN)nc(-c3ccc(OC)cc3)c2C#N)cc1" : 108

* * *

tested on: OVCAR-8 ovarian; assay: NCI-60 one-dose screen, 48 h (100 = growth as untreated, 0 = no growth, -100 = all killed); conditions: 10 µM unless noted
The panel holds about 83,000 compounds, 20% with a hit somewhere; the sample as a whole holds those more often.
Binning scheme for growth: lower segment = under 30%, middle segment = from 30% up to 70%, upper segment = 70% and over

Enquiry: Kindly state the category for this compound: "N/C(=N\c1nc2ccccc2s1)NC(=O)Nc1c(Cl)cccc1Cl"
Return: middle segment

Enquiry: Kindly state the category for this compound: "Brc1ccc(N/N=C/c2c[nH]c3ccc(Br)cc23)nc1"
Return: lower segment

Enquiry: Kindly state the category for this compound: COc1ccc(NC(=O)[C@H](CO)NC(=O)OC(C)(C)C)cc1C(=O)Nc1cccc(C2CC(=O)c3c(cc(OC)c(OC)c3OC)O2)c1 (some centres undefined)
Return: lower segment

Enquiry: Kindly state the category for this compound: "Cc1ccc(C(=O)CSc2nc3ccc(C)cc3c(=O)n2-c2ccc(F)cc2)cc1"
Return: middle segment

Enquiry: Kindly state the category for this compound: "CCCCCCCCc1ccc(S(=O)(=O)Nc2ccc(CC)cc2C(=O)O)cc1"
Return: upper segment

Enquiry: Kindly state the category for this compound: "CCCCn1c(O)c(N=Nc2nc(-c3cc4ccccc4oc3=O)cs2)c2cc(Br)ccc21"
Return: upper segment

Enquiry: Kindly state the category for this compound: COc1c(F)ccc(C(=O)Nc2ccc3nc(NC(=O)C4CCCN(S(=O)(=O)c5ccc(C#N)cc5)C4)sc3c2)c1F (centres undefined)
Return: upper segment

Enquiry: Kindly state the category for this compound: CC1=C(C(=O)OC(C)C)C(c2cccc(O)c2)NC(=S)N1 (centres undefined)
Return: upper segment

Enquiry: Kindly state the category for this compound: "COc1cc(/C=C/C(=O)c2ccccc2)ccc1Oc1nc(Nc2ccc(F)cc2)nc(N(C)C)n1"
Return: lower segment

Enquiry: Kindly state the category for this compound: CCOC(=O)/C=C/c1cccc2c1C(=O)NC(C)(c1cc3cc(Cl)ccc3oc1=O)N2 (centres undefined)
Return: middle segment

Enquiry: Kindly state the category for this compound: "Cc1ccc(S(=O)(=O)c2nc(S(=O)(=O)c3ccc(C)cc3)c(Cl)s2)cc1"
Return: lower segment

Enquiry: Kindly state the category for this compound: "Cn1cc(-c2nc(N)nnc2-c2c[nH]c3ccc(Br)cc23)c2cc(Br)cnc21"
Return: lower segment

Enquiry: Kindly state the category for this compound: "S=C(Nc1ccc(OCc2nc3ccccc3[nH]2)cc1)NC1CCCCC1"
Return: upper segment

Enquiry: Kindly state the category for this compound: Cc1nc(Nc2ncc(C(=O)Nc3c(C)cccc3Cl)s2)cc(N2CCN(CCCNC(=O)COc3ccc(C4CCC(=O)NC4=O)cc3)CC2)n1 (centres undefined)
Return: middle segment

Enquiry: Kindly state the category for this compound: "C#CCOc1ccc(/C=N/Nc2nc(-c3ccc(Cl)cc3)cs2)cc1OC"
Return: middle segment

Enquiry: Kindly state the category for this compound: "COc1ccc(NC(=O)Cn2c3c(sc2=O)[C@H]2[C@@H](O)[C@@H](O)[C@H](O)[C@@H]2CS3)cc1"
Return: upper segment

Enquiry: Kindly state the category for this compound: "O=C(COc1ccc(NC(=O)Nc2ccc(Cl)c(Cl)c2)cc1)N=Nc1c(O)[nH]c2ccccc12"
Return: lower segment

Enquiry: Kindly state the category for this compound: COc1cc(NC(=O)c2cccc(C3CCc4c(cc(OC)c(OC)c4OC)O3)c2)cc(OC)c1OC (centres undefined)
Return: lower segment
